Tested on: HL-1
Experiment: relative cell viability (CellTiter-Glo) vs DMSO control (% of DMSO control); higher = more viable cells
Details: oxygen condition: normoxia 72 h; 1000 nM
Structures can show the parent of a compound that is named as a salt.
readoutKind: relative cell viability
Give bare numbers.

// worked examples, relative cell viability included
molecule=CCOC(=O)[C@H](CCc1ccccc1)N[C@@H](C)C(=O)N1[C@H](C(=O)O)C[C@@H]2CCC[C@@H]21 experimentalresult=117
molecule="CCCOc1ccc(C(=O)OCCN(CC)CC)cc1N [Proparacaine HCl]" experimentalresult=78.4
molecule=OC[C@@H](O)[C@@H](O)[C@H](O)[C@H](O)CO experimentalresult=108
molecule=C[C@]12CC[C@@H]3c4ccc(O)cc4CC[C@H]3[C@@H]1CCC2=O experimentalresult=107

For each of the molecules below, state relative cell viability.
1. CC[C@H](C)[C@H](N)C1=N[C@H](C(=O)N[C@@H](CC(C)C)C(=O)N[C@H](CCC(=O)[O-])C(=O)N[C@H](C(=O)N[C@H]2CCCCNC(=O)[C@H](CC(N)=O)NC(=O)[C@@H](CC(=O)[O-])NC(=O)[C@H](Cc3cnc[nH]3)NC(=O)[C@@H](Cc3ccccc3)NC(=O)[C@H]([C@@H](C)CC)NC(=O)[C@@H](CCCN)NC2=O)[C@@H](C)CC)CS1.[Zn+2]
2. C[N+](C)(C)CCCCCC[N+](C)(C)C [Hexamethonium bromide]
3. NC(=O)CC[C@H](N)C(=O)O

A:
[109, 100, 114]

For each of the molecules below, state relative cell viability.
1. CCN[C@H]1C[C@H](C)S(=O)(=O)c2sc(S(N)(=O)=O)cc21 [Dorzolamide HCL]
2. CCC1(c2ccccc2)C(=O)NCNC1=O
3. N[C@@H](Cc1ccc(O)c(O)c1)C(=O)O

A:
1: 107; 2: 98.6; 3: 108

For each of the molecules below, state relative cell viability.
1. CC(=O)Oc1cc2c(s1)CCN(C(C(=O)C1CC1)c1ccccc1F)C2 (stereo unspecified)
2. NS(=O)(=O)c1cc2c(cc1Cl)N=C(CSCc1ccccc1)NS2(=O)=O [Benzthiazide]
3. C[C@@]12C[C@@]3(O)O[C@@H](O1)[C@]1(COC(=O)c4ccccc4)[C@H]3C[C@@]12O[C@@H]1O[C@H](CO)[C@@H](O)[C@H](O)[C@H]1O
4. CC(Oc1c(Cl)cccc1Cl)C1=NCCN1 (stereo unspecified) [Lofexidine HCl]
5. C=CC(=O)Nc1cc(Nc2nccc(-c3cn(C)c4ccccc34)n2)c(OC)cc1N(C)CCN(C)C

A:
122
100
109
89.6
89.4

Q: Find the measured relative cell viability: item Cn1c(CNc2ccc(C(=N)N)cc2)nc2cc(C(=O)N(CCC(=O)O)c3ccccn3)ccc21 , target or system HL-1.
A: 102

* * *

System: HL-1
Test: relative cell viability (CellTiter-Glo) vs DMSO control (% of DMSO control); higher = more viable cells
Settings: oxygen condition: hypoxia 48 h (1% O2) + reoxygenation 24 h; 5000 nM
Counter-ions that a name gives are not always drawn.
// returns f unless relative cell viability is strictly below 100, in which case t

compound="CCOC(=O)OC(C)OC1=C(C(=O)Nc2ccccn2)N(C)S(=O)(=O)c2ccccc21 (configuration not stated)" targetentity=HL-1 grouplabel=f
compound="CNCC[C@H](Oc1cccc2ccccc12)c1cccs1 [Duloxetine HCl]" targetentity=HL-1 grouplabel=t
compound="CN(Cc1cnc2nc(N)nc(N)c2n1)c1ccc(C(=O)N[C@@H](CCC(=O)O)C(=O)O)cc1 [Abitrexate]" targetentity=HL-1 grouplabel=t
compound="CC1(C)[C@@H](OC(=O)CCC(=O)O)CC[C@]2(C)[C@H]3C(=O)C=C4[C@@H]5C[C@@](C)(C(=O)O)CC[C@]5(C)CC[C@@]4(C)[C@]3(C)CC[C@@H]12 [Carbenoxolone Sodium]" targetentity=HL-1 grouplabel=f
compound="CCCCc1oc2ccccc2c1C(=O)c1cc(I)c(OCCN(CC)CC)c(I)c1 [Amiodarone HCl]" targetentity=HL-1 grouplabel=f

Q: # check: relative cell viability < 100 for C=C[C@]1(C)C[C@@H](OC(=O)CS[C@@H]2C[C@H]3CC[C@@H](C2)N3C)[C@]2(C)[C@H](C)CC[C@]3(CCC(=O)[C@H]32)[C@@H](C)[C@@H]1O
A: f

Q: # check: relative cell viability < 100 for COc1cccc2c1C(=O)c1c(O)c3c(c(O)c1C2=O)C[C@@](O)(C(C)=O)C[C@@H]3O[C@H]1C[C@H](N)[C@H](O)[C@H](C)O1 [Daunorubicin HCl]
A: t

These entries and their values trace back to the supplement of paper PMC8371130.
